- Target System: PDE4B enzyme (Homo sapiens (Human), UniProt Q07343)
- Sequence (Q07343 whole entry): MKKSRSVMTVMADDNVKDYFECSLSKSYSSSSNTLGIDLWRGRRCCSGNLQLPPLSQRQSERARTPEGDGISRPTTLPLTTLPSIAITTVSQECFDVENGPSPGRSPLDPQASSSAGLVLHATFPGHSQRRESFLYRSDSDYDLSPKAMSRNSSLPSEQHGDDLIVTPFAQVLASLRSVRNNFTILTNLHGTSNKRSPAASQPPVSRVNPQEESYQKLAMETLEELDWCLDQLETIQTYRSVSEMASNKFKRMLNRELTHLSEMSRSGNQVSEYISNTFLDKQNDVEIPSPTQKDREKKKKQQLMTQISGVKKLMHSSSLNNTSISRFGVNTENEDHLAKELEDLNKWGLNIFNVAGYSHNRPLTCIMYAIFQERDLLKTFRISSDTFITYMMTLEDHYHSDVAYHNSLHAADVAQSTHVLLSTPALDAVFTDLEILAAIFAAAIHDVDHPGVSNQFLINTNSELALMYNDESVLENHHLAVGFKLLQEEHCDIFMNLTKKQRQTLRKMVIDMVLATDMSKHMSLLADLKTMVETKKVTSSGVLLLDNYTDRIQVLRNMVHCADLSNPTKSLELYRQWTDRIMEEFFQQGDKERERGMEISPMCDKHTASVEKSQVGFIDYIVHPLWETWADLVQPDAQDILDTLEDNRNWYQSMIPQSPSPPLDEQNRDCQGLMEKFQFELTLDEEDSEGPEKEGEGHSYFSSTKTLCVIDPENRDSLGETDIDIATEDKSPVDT
- Test Method Notes: PDE4B inhibitory activity, LANCE Ultra cAMP assay
- Conditions: 50% inhibition from cAMP to 5′AMP
Assay Metric: IC50 (nM)

Example cases with answers are listed next.
CSc1ncc(C(=O)Nc2c(Cl)cncc2Cl)c(N2CCOCC2)n1    73
COc1ccc(-c2nc(C(F)(F)F)ncc2C(=O)NCCN2CCOCC2)cc1OC    195
COc1ccc(-c2nc(SC)ncc2C(=O)NC2CC2)cc1OC    477

a = COc1ccc(-c2nc(S(C)(=O)=O)ncc2C(=O)NC2CCOCC2)cc1OC
b = COc1ccc(-c2nc(C(F)(F)F)ncc2C(=O)Nc2ccncc2)cc1OC
Problem: // which entry reports the smaller IC50, a or b ? Answer by stating the label of the chosen item.
Result: b
(b: 15 nM, a: 506 nM)

# credit: patent US12441690B2
